# Tested On: GST-tagged truncated LRRK2 (Homo sapiens)
# Construct: GST-tagged truncated LRRK2 from Invitrogen (Cat # PV4874); GST; purchased Invitrogen PV4874
# Sequence (Q5S007 970-2527 limits assumed): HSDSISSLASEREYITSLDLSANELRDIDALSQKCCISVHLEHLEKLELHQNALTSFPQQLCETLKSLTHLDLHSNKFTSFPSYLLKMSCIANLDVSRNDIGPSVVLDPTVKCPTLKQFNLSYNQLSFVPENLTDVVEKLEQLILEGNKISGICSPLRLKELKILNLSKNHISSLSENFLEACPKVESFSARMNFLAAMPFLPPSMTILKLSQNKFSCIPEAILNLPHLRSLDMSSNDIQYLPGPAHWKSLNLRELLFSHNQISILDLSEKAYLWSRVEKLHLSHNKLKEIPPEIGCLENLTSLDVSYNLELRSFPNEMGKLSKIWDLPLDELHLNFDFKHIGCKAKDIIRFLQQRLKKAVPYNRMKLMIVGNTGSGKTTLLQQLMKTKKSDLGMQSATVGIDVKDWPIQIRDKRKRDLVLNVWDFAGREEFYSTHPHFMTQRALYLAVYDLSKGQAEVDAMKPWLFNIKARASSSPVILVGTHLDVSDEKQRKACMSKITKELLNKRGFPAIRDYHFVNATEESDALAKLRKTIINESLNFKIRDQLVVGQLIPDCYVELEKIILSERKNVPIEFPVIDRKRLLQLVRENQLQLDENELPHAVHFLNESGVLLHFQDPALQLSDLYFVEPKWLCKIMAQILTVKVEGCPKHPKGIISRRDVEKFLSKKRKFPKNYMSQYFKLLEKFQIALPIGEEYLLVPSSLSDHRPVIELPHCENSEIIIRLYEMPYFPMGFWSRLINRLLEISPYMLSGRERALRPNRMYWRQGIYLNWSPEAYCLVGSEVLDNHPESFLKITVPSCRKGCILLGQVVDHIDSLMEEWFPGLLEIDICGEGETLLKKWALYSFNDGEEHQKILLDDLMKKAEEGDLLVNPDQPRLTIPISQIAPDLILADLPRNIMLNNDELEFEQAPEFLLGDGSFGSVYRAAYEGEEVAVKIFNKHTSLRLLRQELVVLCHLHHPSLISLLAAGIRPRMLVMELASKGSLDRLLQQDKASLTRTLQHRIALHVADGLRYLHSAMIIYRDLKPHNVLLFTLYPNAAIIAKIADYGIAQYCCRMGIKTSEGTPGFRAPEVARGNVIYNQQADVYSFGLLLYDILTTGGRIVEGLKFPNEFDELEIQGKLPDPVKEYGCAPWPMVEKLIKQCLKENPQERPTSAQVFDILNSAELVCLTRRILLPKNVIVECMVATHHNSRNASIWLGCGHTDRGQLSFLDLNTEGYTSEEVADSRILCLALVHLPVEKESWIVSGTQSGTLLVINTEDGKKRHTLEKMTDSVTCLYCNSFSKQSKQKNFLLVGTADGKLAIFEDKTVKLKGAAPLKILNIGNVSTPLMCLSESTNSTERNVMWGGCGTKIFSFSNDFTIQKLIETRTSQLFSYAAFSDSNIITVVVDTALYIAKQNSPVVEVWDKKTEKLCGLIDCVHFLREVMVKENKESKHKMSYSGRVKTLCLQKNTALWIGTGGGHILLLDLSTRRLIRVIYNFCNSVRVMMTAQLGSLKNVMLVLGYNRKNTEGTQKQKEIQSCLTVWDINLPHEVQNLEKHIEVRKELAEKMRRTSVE
# Experimental Details: LRRK2 Assay, Format 2 (Lantha Screen), WT
# Format: biochemical
# Applied Conditions: geometric mean of 2-4 determinations unless otherwise indicated (a: >=5; b: single determination)
pIC50: −log10 of the molar value. Structures can show the parent of a compound that is named as a salt.
Outcome Measure: pIC50

                                   compound                                 tested_on  outcome_measure  reported_measurement
0  COc1cnn(Cc2nc3cnc4ccc(C#N)cc4c3n2CC(C)(F)F)c1 [Example 210]  GST-tagged truncated LRRK2 (Homo sapiens)            pIC50                  8.15
1  C[C@@H]1C[C@H](n2c(Cc3cc(CF)on3)nc3cnc4ccc(C#N)cc4c32)CCO1 [Example 189, trifluoroacetate salt]  GST-tagged truncated LRRK2 (Homo sapiens)            pIC50                  8.30
2  Cc1nc(Cc2nc3cnc4ccc(C#N)cc4c3n2[C@@H]2CCO[C@H](C)C2)no1 [Example 123]  GST-tagged truncated LRRK2 (Homo sapiens)            pIC50                  8.03
3  Cc1cc(Cc2nc3cnc4ccc(C#N)cc4c3n2[C@@H]2CC[C@H](F)C2)no1 (single isomer, unassigned) [Example 97]  GST-tagged truncated LRRK2 (Homo sapiens)            pIC50                  8.29
4  Cc1cn(Cc2nc3cnc4ccc(F)cc4c3n2[C@@H]2CCO[C@H](C)C2)nn1 [Example 199]  GST-tagged truncated LRRK2 (Homo sapiens)            pIC50                  7.99

[I] FCCn1c(Cc2cnccn2)nc2cnc3ccc(Cl)cc3c21 [Example 182]
[II] Cc1cc(Cc2nc3cnc4ccc(C#N)cc4c3n2C2CCCCC2(F)F)no1 (stereo not drawn) [Example 151, formate salt]
Query string: For this pair, I and II , which shows a numerically higher pIC50? API: response body contains the label of the selected item.
Result string: II
(II: 7.78, I: 7.17)

[a] C[C@@H]1C[C@H](n2c(Cc3cc(CF)on3)nc3cnc4ccc(Cl)cc4c32)CCO1 [Example 139]
[b] Cc1cc(Cc2nc3cnc4ccc(C#N)cc4c3n2C2CCCC2(F)F)no1 (single isomer, unassigned; ent-2) [Example 144]
Query string: Between a and b , which one shows the smaller pIC50 number? API: response body contains the label of the selected item.
Result string: b
(b: 7.71, a: 8.56)

[1] Cc1cc(Cc2nc3cnc4ccc(C#N)cc4c3n2C2CCCC2)no1 [Example 152, formate salt]
[2] Cc1cc(Cc2nc3cnc4ccc(C#N)cc4c3n2[C@@H]2CCO[C@H](C)C2)on1 [Example 95]
[3] C[C@@H]1C[C@H](n2c(Cn3cc(C(F)(F)F)nn3)nc3cnc4ccc(C#N)cc4c32)CCO1 [Example 175]
Query string: List these items ordered by pIC50, big to small. Put the labels in the order asked and list them.
Result string: 2, 3, 1

Values from patent US10039753B2
